- Species: Rattus norvegicus
- method-summary: Open TG-GATES - Regimen: Single
- Type: toxicity, organism-based, Sprague-Dawley
- Parameters: regimen Single, gender Male, age 6 weeks
- condition-info: in vivo, po, 100 mg/kg, 3 h, tissue Blood, route gavage, dose level Low
quantity-name: Ret (%)
Supply the numeric figure in %, leaving out any unit text.

Prompt: Form field: reported Ret of CCc1cc(C(N)=S)ccn1 [ETHIONAMIDE]
Response: 7.1

Prompt: Form field: reported Ret of `O=C(O)c1cc(/N=N/c2ccc(S(=O)(=O)Nc3ccccn3)cc2)ccc1O`
Response: 7.1

Prompt: Form field: reported Ret of `Clc1ccccc1CN1CCc2sccc2C1`
Response: 8.1

Prompt: Form field: reported Ret of `O=C(O)c1cn(C2CC2)c2cc(N3CCNCC3)c(F)cc2c1=O`
Response: 10.8

Prompt: Form field: reported Ret of `C[C@H](CS)C(=O)N1CCC[C@H]1C(=O)O`
Response: 7.4

---

- Species: Rattus norvegicus
- method-summary: Open TG-GATES - Regimen: Single
- Type: toxicity, organism-based, Sprague-Dawley
- Design: regimen Single, gender Male, age 6 weeks
- condition-info: in vivo, po, 300 mg/kg, 6 h, tissue Plasma, route gavage, dose level Middle
quantity-name: GLC (mg/dL)
Supply the numeric figure in mg/dL, leaving out any unit text.

Here's what some known entries look like.
Prompt: Form field: reported GLC of `Clc1ccccc1CN1CCc2sccc2C1`
Response: 192

Prompt: Form field: reported GLC of `C[C@H](CS)C(=O)N1CCC[C@H]1C(=O)O`
Response: 197.4

Prompt: Form field: reported GLC of CCc1cc(C(N)=S)ccn1 [ETHIONAMIDE]
Response: 188.6

More entries:
Prompt: Form field: reported GLC of `O=C(O)c1cn(C2CC2)c2cc(N3CCNCC3)c(F)cc2c1=O`
Response: 175.2

Prompt: Form field: reported GLC of `O=C(O)c1cc(/N=N/c2ccc(S(=O)(=O)Nc3ccccn3)cc2)ccc1O`
Response: 190

---

- Species: Rattus norvegicus
- method-summary: Open TG-GATES - Regimen: Daily Repeat
- Type: toxicity, organism-based, Sprague-Dawley
- Parameters: regimen Daily Repeat, gender Male, age 6 weeks
- condition-info: in vivo, po, 0 mg/kg, 72 h, tissue Plasma, route gavage, dose level Control, time 3 day
Measured GLC accompanies every entry in the list below.
Supply the numeric figure in mg/dL, leaving out any unit text.

Here's what some known entries look like.
Prompt: Form field: reported GLC of CCCC(CCC)C(=O)O [VALPROIC ACID]
Response: 216.2

Prompt: Form field: reported GLC of COc1ccc(Cc2nccc3cc(OC)c(OC)cc23)cc1OC [PAPAVERINE]
Response: 202.2

Prompt: Form field: reported GLC of NC(=O)N1c2ccccc2C=Cc2ccccc21 [CARBAMAZEPINE]
Response: 213.8

Prompt: Form field: reported GLC of CO[C@H]1/C=C/O[C@@]2(C)Oc3c(C)c(O)c4c(O)c(c(/C=N/N5CCN(C)CC5)c(O)c4c3C2=O)NC(=O)/C(C)=C\C=C\[C@H](C)[C@H](O)[C@@H](C)[C@@H](O)[C@@H](C)[C@H](OC(C)=O)[C@@H]1C [RIFAMPIN]
Response: 199.2

Prompt: Form field: reported GLC of CN(C)CCC=C1c2ccccc2CCc2ccccc21 [AMITRIPTYLINE]
Response: 179.4

More entries:
Prompt: Form field: reported GLC of COc1ccc2c(c1)c(CC(=O)O)c(C)n2C(=O)c1ccc(Cl)cc1 [INDOMETHACIN]
Response: 201.8

Prompt: Form field: reported GLC of O=C(O)c1cc(/N=N/c2ccc(S(=O)(=O)Nc3ccccn3)cc2)ccc1O [SULFASALAZINE]
Response: 207.4

Prompt: Form field: reported GLC of CSc1ccc2c(c1)N(CCC1CCCCN1C)c1ccccc1S2 (stereo not given) [THIORIDAZINE]
Response: 193.4

Prompt: Form field: reported GLC of NC(=O)N/N=C/c1ccc([N+](=O)[O-])o1 [NITROFURAZONE]
Response: 178.2

---

- Organism: Rattus norvegicus
- method-summary: Open TG-GATES - Regimen: Daily Repeat
- Format: toxicity, organism-based, Sprague-Dawley
- Set-up: regimen Daily Repeat, gender Male, age 6 weeks
- condition-info: in vivo, po, 0 mg/kg, […], tissue Blood, route gavage, dose level Control, time 7 day
quantity-name: APTT (s)
Supply the numeric figure in s, leaving out any unit text.

Here's what some known entries look like.
Prompt: Form field: reported APTT of `COc1ccc(Cc2nccc3cc(OC)c(OC)cc23)cc1OC`
Response: 23.2

Prompt: Form field: reported APTT of `CN(C)CCC=C1c2ccccc2CCc2ccccc21`
Response: 16.5

Prompt: Form field: reported APTT of `CCCC(CCC)C(=O)O`
Response: 19.2

Prompt: Form field: reported APTT of CCc1cc(C(N)=S)ccn1 [ETHIONAMIDE]
Response: 17.5

Prompt: Form field: reported APTT of CSc1ccc2c(c1)N(CCC1CCCCN1C)c1ccccc1S2 (centres undefined)
Response: 15.1

Prompt: Form field: reported APTT of `Clc1ccccc1CN1CCc2sccc2C1`
Response: 20.7

More entries:
Prompt: Form field: reported APTT of `O=C(O)c1cn(C2CC2)c2cc(N3CCNCC3)c(F)cc2c1=O`
Response: 16.9

Prompt: Form field: reported APTT of `C[C@H](CS)C(=O)N1CCC[C@H]1C(=O)O`
Response: 16.6

Prompt: Form field: reported APTT of `O=C(O)c1cc(/N=N/c2ccc(S(=O)(=O)Nc3ccccn3)cc2)ccc1O`
Response: 19.2

---

- Organism: Rattus norvegicus
- method-summary: Open TG-GATES - Regimen: Single
- Assay type: toxicity, organism-based, Sprague-Dawley
- Design: regimen Single, gender Male, age 6 weeks
- condition-info: in vivo, po, 300 mg/kg, 3 h, tissue Blood, route gavage, dose level Middle
quantity-name: Eos (%)
Supply the numeric figure in %, leaving out any unit text.

Here's what some known entries look like.
Prompt: Form field: reported Eos of Clc1ccccc1CN1CCc2sccc2C1 [TICLOPIDINE]
Response: 1

Prompt: Form field: reported Eos of O=C(O)c1cc(/N=N/c2ccc(S(=O)(=O)Nc3ccccn3)cc2)ccc1O [SULFASALAZINE]
Response: 1

Prompt: Form field: reported Eos of CCc1cc(C(N)=S)ccn1 [ETHIONAMIDE]
Response: 1

Prompt: Form field: reported Eos of C[C@H](CS)C(=O)N1CCC[C@H]1C(=O)O [CAPTOPRIL]
Response: 0.8

Pending compound:
Prompt: Form field: reported Eos of O=C(O)c1cn(C2CC2)c2cc(N3CCNCC3)c(F)cc2c1=O [CIPROFLOXACIN]
Response: 0.4

---

Measured Ret accompanies every entry in the list below.
- Species on record: Rattus norvegicus
- method-summary: Open TG-GATES - Regimen: Single
- Type: toxicity, organism-based, Sprague-Dawley
- Parameters: regimen Single, gender Male, age 6 weeks
- condition-info: in vivo, po, 300 mg/kg, 9 h, tissue Blood, route gavage, dose level Middle
Supply the numeric figure in %, leaving out any unit text.

Here's what some known entries look like.
Prompt: Form field: reported Ret of CCc1cc(C(N)=S)ccn1 [ETHIONAMIDE]
Response: 7.6

Prompt: Form field: reported Ret of `Clc1ccccc1CN1CCc2sccc2C1`
Response: 7.2

Prompt: Form field: reported Ret of `C[C@H](CS)C(=O)N1CCC[C@H]1C(=O)O`
Response: 8.6

Prompt: Form field: reported Ret of `O=C(O)c1cc(/N=N/c2ccc(S(=O)(=O)Nc3ccccn3)cc2)ccc1O`
Response: 7.5

Pending compound:
Prompt: Form field: reported Ret of `O=C(O)c1cn(C2CC2)c2cc(N3CCNCC3)c(F)cc2c1=O`
Response: 9.9

---

- Species on record: Rattus norvegicus
- method-summary: Open TG-GATES - Regimen: Daily Repeat
- Type: toxicity, organism-based, Sprague-Dawley
- Design: regimen Daily Repeat, gender Male, age 6 weeks
- condition-info: in vivo, po, 0 mg/kg, […], tissue Blood, route gavage, dose level Control, time 7 day
quantity-name: Lym

Prompt: Form field: reported Lym of `C[C@H](CS)C(=O)N1CCC[C@H]1C(=O)O`
Response: 83%

Prompt: Form field: reported Lym of `CC(=O)Oc1ccccc1C(=O)O`
Response: 85.6%

Prompt: Form field: reported Lym of NC(=O)N1c2ccccc2C=Cc2ccccc21 [CARBAMAZEPINE]
Response: 81%

Prompt: Form field: reported Lym of `O=C(O)c1cc(/N=N/c2ccc(S(=O)(=O)Nc3ccccn3)cc2)ccc1O`
Response: 81.6%

Prompt: Form field: reported Lym of CCc1cc(C(N)=S)ccn1 [ETHIONAMIDE]
Response: 78%

Prompt: Form field: reported Lym of `Cn1c(=O)c2[nH]cnc2n(C)c1=O.O`
Response: 77.8%

Prompt: Form field: reported Lym of `CCCC(CCC)C(=O)O`
Response: 83.8%

Prompt: Form field: reported Lym of `CN(C)CCC=C1c2ccccc2CCc2ccccc21`
Response: 78.8%

Pending compound:
Prompt: Form field: reported Lym of `COc1ccc2c(c1)c(CC(=O)O)c(C)n2C(=O)c1ccc(Cl)cc1`
Response: 82%
